# literature pull: UniProt P32245 pKi
Scale: pKi equals -log10([C]), with [C] in mol/L.

Output reported pKi of the compound CC(C)CC(N)c1ccccc1N1CCN(C(=O)[C@@H](Cc2ccc(Cl)cc2Cl)N(CC2CC2)CC2CC2)CC1 (stereo partly drawn) on UniProt P32245.
6.46

Specify pKi for CCN(CC)CC(c1ccccc1Cl)N1CCN(C)CC1 (stereo not drawn) , system UniProt P32245.
7.15

GET pKi where system = UniProt P32245 and item = CC(C)C[C@H](N)c1cc(C(F)(F)F)ccc1N1CCN(C(=O)C2NC(=O)CC2c2ccc(Cl)cc2)CC1 (stereo partly drawn)
6.47

State pKi (UniProt P32245) of O=C(N[C@H](Cc1ccc(Cl)cc1)C(=O)N1CCN(c2ccccc2CNCC2CCNCC2)CC1)[C@H]1Cc2ccccc2CN1 .
6.99

Send back UniProt P32245 pKi of COc1ccc(Br)cc1CCc1c(F)cccc1C(=O)NC(N)=NCCC1CCCCC1 only.
5.59

Provide pKi, system UniProt P32245, entry CC(C)C[C@H](N)c1cc(C(F)(F)F)ccc1N1CCN(C(=O)CCc2ccc(S(C)(=O)=O)cc2)CC1
5.31

Supply pKi measured with UniProt P32245 for COc1ccc(Br)cc1CCc1c(F)cccc1C(=O)/N=C(\N)NCCCNC1CCCCC1 .
7.10

Fetch value of pKi on UniProt P32245 for CC(C)N1C[C@H](C(=O)N2CCN(C3(CNCc4ccc5c(c4)OCO5)CCCCC3)CC2)[C@@H](c2ccc(Cl)cc2)C1 .
8.08

###

Compiled notes: published pKi values involving Melanocortin receptor 4 (Homo sapiens, UniProt P32245).
// returns pKi (minus log10 of molar concentration), number only

Given CCC(O)(CC)c1ccccc1N1CCN(C(=O)[C@@H](Cc2ccc(Cl)cc2Cl)NC(=O)N2CCCC2=O)CC1 , report its pKi on Melanocortin receptor 4 (Homo sapiens, UniProt P32245).
Sequence (P32245 whole entry): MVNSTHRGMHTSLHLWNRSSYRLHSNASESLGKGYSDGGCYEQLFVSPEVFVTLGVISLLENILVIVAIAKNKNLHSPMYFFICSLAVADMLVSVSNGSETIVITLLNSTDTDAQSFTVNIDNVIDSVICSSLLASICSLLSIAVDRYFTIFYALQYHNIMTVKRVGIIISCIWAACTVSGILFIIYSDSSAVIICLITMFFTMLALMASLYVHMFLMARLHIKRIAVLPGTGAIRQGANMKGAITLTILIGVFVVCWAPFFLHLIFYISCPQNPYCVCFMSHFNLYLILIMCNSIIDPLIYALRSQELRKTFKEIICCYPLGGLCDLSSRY
6.96

# return pKi for CC(C)C[C@H](N)c1cc(C(F)(F)F)ccc1N1CCN(C(=O)COc2ccc(O)cc2)CC1 , test system: Melanocortin receptor 4 (Homo sapiens, UniProt P32245)
5.34

# return pKi of Cc1ccc([C@H](N)CC(C)C)c(N2CCN(C(=O)[C@H](C)Cc3ccc(Cl)cc3Cl)CC2)n1 (system: Melanocortin receptor 4 (Homo sapiens, UniProt P32245))
7.36

Under Melanocortin receptor 4 (Homo sapiens, UniProt P32245), report pKi for NCCC(=O)N[C@H](Cc1ccc(Cl)cc1Cl)C(=O)N1CCN(c2ncccc2CNC(=O)Nc2ccccc2)CC1
6.15

// fetch pKi for CCC(C)[C@H](NCCN)c1cc(C(F)(F)F)ccc1N1CCN(C(=O)CCc2ccc(Cl)cc2Cl)CC1 (some centres not stated) ; system: Melanocortin receptor 4 (Homo sapiens, UniProt P32245)
7.25

Given O=C(Cc1ccccc1)NCC1(N2CCN(C(=O)[C@@H](Cc3ccc(Cl)cc3)NC(=O)c3ccccc3)CC2)CCCCC1 , report its pKi on Melanocortin receptor 4 (Homo sapiens, UniProt P32245).
7.08

Send back Melanocortin receptor 4 (Homo sapiens, UniProt P32245) pKi of CC(C)C[C@H](N)c1cc(C(F)(F)F)ccc1N1CCN(C(=O)CCC2CCCCC2)CC1 only.
5.24

Quote pKi with test system Melanocortin receptor 4 (Homo sapiens, UniProt P32245) for COc1ccc(Br)cc1CCc1ccccc1-c1nc(C(C)C)cn1C
5.80

Give Melanocortin receptor 4 (Homo sapiens, UniProt P32245) pKi for the following compound: CC(C)[C@H](N)c1cccc(F)c1N1CCN(C(=O)C2NCCC2c2ccc(Cl)cc2Cl)CC1 (some centres not stated)
6.25

Provide the reported pKi (system: Melanocortin receptor 4 (Homo sapiens, UniProt P32245)) for CCN(CC)CCCC(C)N=C(N)NC(=O)c1cccc(F)c1CCc1cc(Br)ccc1Cl (configuration not stated)
6.96

Recall the reported pKi of CC(C)N1C[C@H](C(=O)N2CCN(C3(CNCc4ccccc4F)CCCCC3)CC2)[C@@H](c2ccc(Cl)cc2)C1 when tested on Melanocortin receptor 4 (Homo sapiens, UniProt P32245).
7.92

Check Melanocortin receptor 4 (Homo sapiens, UniProt P32245) data and give pKi for CC(C)N1C[C@H](C(=O)N2CCN(C3(CNCc4ccoc4)CCCCC3)CC2)[C@@H](c2ccc(Cl)cc2)C1 .
7.12

State, for Melanocortin receptor 4 (Homo sapiens, UniProt P32245), measured pKi of the compound listed here: CC(C)C[C@H](N)c1cc(C(F)(F)F)ccc1N1CCN(C(=O)[C@@H]2CN(C(=O)OC(C)(C)C)C[C@H]2c2ccc(Cl)cc2)CC1
6.41

Recall the reported pKi of CNC(=O)[C@H](Cc1ccc2ccccc2c1)NC(=O)[C@H](CCCN=C(N)N)NC(=O)[C@H](CC[C@H](Cc1ccc(O)cc1)NC(C)=O)Cc1ccccc1 on Melanocortin receptor 4 (Homo sapiens, UniProt P32245) and write it down.
6.67

Look up Melanocortin receptor 4 (Homo sapiens, UniProt P32245) data: pKi of Cc1cc(Cl)ccc1C[C@@H](C)C(=O)N1CCN(c2ccccc2[C@@H](N)CC(C)C)CC1 , then report it.
7.92

Give pKi for this entry on Melanocortin receptor 4 (Homo sapiens, UniProt P32245): CC(C)CC(N)c1ccccc1N1CCN(C(=O)[C@@H](Cc2ccc(Cl)cc2Cl)NC(=O)[C@H](C)N)CC1 (some centres not stated)
8.38

Fill: pKi (Melanocortin receptor 4 (Homo sapiens, UniProt P32245)) for this compound CNC(=O)[C@H](Cc1ccc2ccccc2c1)N1CCN(C(=O)[C@@H](Cc2ccc(F)cc2)NC(C)=O)[C@@H](CCCN=C(N)N)C1=O
8.89

Write down the reported pKi (system: Melanocortin receptor 4 (Homo sapiens, UniProt P32245)) of O=C(N[C@H](Cc1ccc(Cl)cc1)C(=O)N1CC[N+]([O-])(c2ccccc2)CC1)C1Cc2ccccc2CN1 (some centres not stated)
3.77

System Melanocortin receptor 4 (Homo sapiens, UniProt P32245). Read-out pKi. Item CC(NC1CCCNC1)c1ccccc1N1CCN(C(=O)[C@@H](Cc2ccc(Cl)cc2)NC(=O)c2cnc3ccccc3c2)CC1 (some centres not stated) . Report value.
8.32

Given CCOC(=O)N1CC[C@H](c2ccc(Cl)cc2)[C@H]1C(=O)N1CCN(c2ccc(C)cc2[C@@H](N)C(C)C)CC1 , report its pKi on Melanocortin receptor 4 (Homo sapiens, UniProt P32245).
7.38

Give measured pKi for NCCC(=O)N[C@H](Cc1ccc(Cl)cc1Cl)C(=O)N1CCN(c2ccccc2CO)CC1 (Melanocortin receptor 4 (Homo sapiens, UniProt P32245)).
6.06

Recall the reported pKi of CC(C)CC(O)c1ccccc1N1CCN(C(=O)[C@H](N)Cc2ccc(Cl)cc2Cl)CC1 (some centres not stated) on Melanocortin receptor 4 (Homo sapiens, UniProt P32245) and write it down.
6.55

Give reported pKi for COc1cc(CC(C)C(=O)N2CCN(c3ccc(C(F)(F)F)cc3[C@@H](N)CC(C)C)CC2)ccc1Cl (some centres not stated) (Melanocortin receptor 4 (Homo sapiens, UniProt P32245))
6.64

Provide Melanocortin receptor 4 (Homo sapiens, UniProt P32245) pKi reading for CC(C)N1C[C@H](C(=O)N2CCN(C3(CNCc4ccccc4C(F)(F)F)CCCCC3)CC2)[C@@H](c2ccc(Cl)cc2)C1 .
6.85

GET pKi where system = Melanocortin receptor 4 (Homo sapiens, UniProt P32245) and item = NCCC(=O)N[C@H](Cc1ccc(Cl)cc1Cl)C(=O)N1CCN(c2ncccc2CNC(=O)Cc2cccs2)CC1
6.51

Find pKi for COc1ccccc1CC(=O)NCc1cccnc1N1CCN(C(=O)[C@@H](Cc2ccc(Cl)cc2Cl)NC(=O)CCN)CC1 on Melanocortin receptor 4 (Homo sapiens, UniProt P32245) and write it down.
6.44

Specify the recorded pKi for CC(NCc1ccco1)c1ccccc1N1CCN(C(=O)[C@@H](Cc2ccc(Cl)cc2)NC(=O)[C@H]2Cc3ccccc3CN2)CC1 (some centres not stated) , system: Melanocortin receptor 4 (Homo sapiens, UniProt P32245).
7.92

Give measured pKi for CC(C)[C@H](NC(=O)CCN(C)C)c1cccc(F)c1N1CCN(C(=O)[C@@H]2CN(C(C)C)C[C@H]2c2cc(F)cc(F)c2)CC1 (Melanocortin receptor 4 (Homo sapiens, UniProt P32245)).
5.11

State pKi (Melanocortin receptor 4 (Homo sapiens, UniProt P32245)) of CC(C)CC(N)c1ccccc1N1CCN(C(=O)[C@@H](Cc2ccc(Cl)cc2Cl)NC(=O)C(C)(C)N)CC1 (some centres not stated) .
8.11

Supply pKi measured with Melanocortin receptor 4 (Homo sapiens, UniProt P32245) for COc1cc(Cl)ccc1CC(C)C(=O)N1CCN(c2ccc(C(F)(F)F)cc2[C@@H](N)CC(C)C)CC1 (some centres not stated) .
7.85

Output reported pKi of the compound CCN(CC(c1ccccc1F)N1CCN(C)CC1)C(C)=O (configuration not stated) on Melanocortin receptor 4 (Homo sapiens, UniProt P32245).
6.97

Please tell me the measured pKi for O=C(N[C@H](Cc1ccc(Cl)cc1)C(=O)N1CCN(C2(Cn3cncn3)CCCC2)CC1)C1Cc2ccccc2CN1 (some centres not stated) ; system: Melanocortin receptor 4 (Homo sapiens, UniProt P32245).
5.82
